Below, each entry is listed alongside its reported pKd.
MEASURED_TARGET: T1, recombinant gp120 of HIV-1 strain IIIb (HIV-1 strain IIIb, UniProt P04578 33-511)
T1 construct: domain: gp120; also called IIIb-derived gp120; gp 120 (IIIB strain)
TEST_SUMMARY: SPR BIAcore, gp120 on chip (summary table)
# pKd = -log10(concentration in molar units)

Solved entries:
1. composite Fab H101/4L-1 (Fab, V domains shown) VH: LEQSGAEVKKPGASVKVSCQASGYRFSHFTVHWVRQAPGQRFEWHGWINPYNGNKEFSAKFQDRVTFTADTSANTAYMELRSLRSADTAVYYCARVGEWGWHQRRYDNYYMDVWGKGTTVIVSS VL: ELTQSPGTLSLSPGERATFSCRSSHSIRSRRVAWYQHKPGQAPRLVIHGVSNRASGISDRFSGSGSGTDFTLTITRVEPEDFALYYCQVYGASSYTFGQGTKLERKR	9.42
2. composite Fab H101/L42-1 (Fab, V domains shown) VH: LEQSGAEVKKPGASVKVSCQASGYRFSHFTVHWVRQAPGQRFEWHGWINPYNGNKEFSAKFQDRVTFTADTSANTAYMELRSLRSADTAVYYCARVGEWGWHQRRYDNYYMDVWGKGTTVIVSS VL: ELTQSPGTLSLSPGERATFSCRSSHQLDGSRVAWYQHKPGQAPRLVIHGVSNRASGISDRFSGSGSGTDFTLTITRVEPEDFALYYCQQYGWPFYTFGQGTKLERKR	9.89
3. Fab D (Fab, V domains shown) VH: LEQSGAEVKKPGASVKVSCQASGYRFSNFTVHWVRQAPGQRFEWMGWINPYNGNKEFSAKFQDRVTFTADTSANTAYMELRSLRSADTAVYYCARVGEWGWDDSPQDNYYMDVWGKGTTVIVSS VL: ELTQSPGTLSLSPGERATFSCRSSHQLDGSRVAWYQHKPGQAPRLVIHGVSNRASGISDRFSGSGSGTDFTLTITRVEPEDFALYYCQVYGASSYTFGQGTKLERKR	9.66

-- ask Value lookup for pKd; key = Fab QA11 (Fab, V domains shown, also called LH (its light chain)) VH: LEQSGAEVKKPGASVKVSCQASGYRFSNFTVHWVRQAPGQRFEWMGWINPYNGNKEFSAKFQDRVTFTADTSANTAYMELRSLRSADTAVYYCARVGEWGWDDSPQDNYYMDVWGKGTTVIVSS VL: ELTQSPGTLSLSPGERATFSCRSSHQLDGSRVAWYQHKPGQAPRLVIHGVSNRASGISDRFSGSGSGTDFTLTITRVEPEDFALYYCQTYGRGHYTFGQGTKLERKR
-- reply 10.17

-- ask For Fab QA5 (Fab, V domains shown) VH: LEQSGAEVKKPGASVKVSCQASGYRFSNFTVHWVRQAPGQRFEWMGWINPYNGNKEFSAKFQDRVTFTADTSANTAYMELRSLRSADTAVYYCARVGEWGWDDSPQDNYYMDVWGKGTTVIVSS VL: ELTQSPGTLSLSPGERATFSCRSSHQLDGSRVAWYQHKPGQAPRLVIHGVSNRASGISDRFSGSGSGTDFTLTITRVEPEDFALYYCQTYGWSGYTFGQGTKLERKR , what is its reported pKd?
-- reply 9.34

-- ask What does the record list as pKd for Fab M556-3 (Fab, V domains shown) VH: LEQSGAEVKKPGASVKVSCQASGYRFSNFTVHWVRQAPGQRFEWMGWINPYNGNKEFSAKFQDRVTFTADTSANTAYMELRSLRSADTAVYYCARVGEWGWEMFRYDNYYMDVWGKGTTVIVSS VL: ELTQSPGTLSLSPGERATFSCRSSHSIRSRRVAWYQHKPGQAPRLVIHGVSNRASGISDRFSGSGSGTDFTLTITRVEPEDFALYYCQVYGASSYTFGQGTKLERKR ?
-- reply 10.00

-- ask Need pKd, item Fab QA12 (Fab, V domains shown) VH: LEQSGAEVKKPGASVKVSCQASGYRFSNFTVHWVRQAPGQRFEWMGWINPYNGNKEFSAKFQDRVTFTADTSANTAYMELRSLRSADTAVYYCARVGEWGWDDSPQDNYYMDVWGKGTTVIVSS VL: ELTQSPGTLSLSPGERATFSCRSSHQLDGSRVAWYQHKPGQAPRLVIHGVSNRASGISDRFSGSGSGTDFTLTITRVEPEDFALYYCQTYGRGIYTFGQGTKLERKR
-- reply 9.89

-- ask Return reported pKd; argument: composite Fab H33/L42-17 (Fab, V domains shown) VH: LEQSGAEVKKPGASVKVSCQASGYRFSHFTLHWVRQAPGQRFEWHGWINPYNGNKEFSAKFQDRVTFTADTSANTAYMELRSLRSADTAVYYCARVGEWGWEMFRYDNYYMDVWGKGTTVIVSS VL: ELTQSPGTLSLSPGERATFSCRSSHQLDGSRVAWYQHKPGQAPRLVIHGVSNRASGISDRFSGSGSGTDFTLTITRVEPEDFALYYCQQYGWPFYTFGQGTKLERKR
-- reply 9.74

-- ask Given Fab QA1 (Fab, V domains shown) VH: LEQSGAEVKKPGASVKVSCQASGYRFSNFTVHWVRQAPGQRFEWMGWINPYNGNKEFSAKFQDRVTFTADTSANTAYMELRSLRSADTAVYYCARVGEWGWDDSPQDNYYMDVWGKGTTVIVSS VL: ELTQSPGTLSLSPGERATFSCRSSHQLDGSRVAWYQHKPGQAPRLVIHGVSNRASGISDRFSGSGSGTDFTLTITRVEPEDFALYYCQVYGWSQYTFGQGTKLERKR , state its recorded pKd.
-- reply 9.29

-- ask Param item = composite Fab H101/L42-16 (Fab, V domains shown) VH: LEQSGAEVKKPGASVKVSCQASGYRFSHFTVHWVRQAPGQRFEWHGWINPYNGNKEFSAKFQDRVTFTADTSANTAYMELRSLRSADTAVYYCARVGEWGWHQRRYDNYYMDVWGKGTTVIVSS VL: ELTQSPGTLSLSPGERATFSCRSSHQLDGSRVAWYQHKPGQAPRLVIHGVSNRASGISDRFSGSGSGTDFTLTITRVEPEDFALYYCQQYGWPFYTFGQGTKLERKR ; retrieve measured pKd.
-- reply 9.77
